- System Under Test: MMP-1 (Homo sapiens)
- Sequence (P03956 100-469): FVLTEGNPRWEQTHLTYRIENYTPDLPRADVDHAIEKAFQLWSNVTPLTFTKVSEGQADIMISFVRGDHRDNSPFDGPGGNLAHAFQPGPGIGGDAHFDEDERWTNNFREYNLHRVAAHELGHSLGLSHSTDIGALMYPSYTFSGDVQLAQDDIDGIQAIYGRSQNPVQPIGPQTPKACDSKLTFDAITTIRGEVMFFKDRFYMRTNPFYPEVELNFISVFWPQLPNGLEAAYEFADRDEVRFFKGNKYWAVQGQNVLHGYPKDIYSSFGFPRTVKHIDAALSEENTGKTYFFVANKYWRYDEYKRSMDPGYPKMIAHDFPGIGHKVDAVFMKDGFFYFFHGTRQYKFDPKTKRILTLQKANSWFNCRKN
- Assay Comment: biochemical
- Protocol Conditions: MMP-1 IC50
Readout Name: IC50 (nM)
# value in nM; strip the unit string

## Input Identify the measured IC50 of Cc1noc2ncc(C(=O)NO)c(N(C)S(=O)(=O)c3ccc(Oc4ccncc4)cc3)c12 [Example 94] for MMP-1 (Homo sapiens).
## Output 2550

## Input Identify the measured IC50 of COc1ccc(S(=O)(=O)N(Cc2cccnc2)c2c(C(=O)NO)cnc3c(Cc4ccccc4)cccc23)cc1 [Example 38] for MMP-1 (Homo sapiens).
## Output 100

## Input Identify the measured IC50 of COc1ccc(S(=O)(=O)N(C)c2c(C(=O)NO)cnc3c(Br)cccc23)cc1 [Example 31] for MMP-1 (Homo sapiens).
## Output 225

## Input Identify the measured IC50 of COc1ccc(S(=O)(=O)N(Cc2ccccc2)c2c(C(=O)NO)cnc3c(C(C)C)cccc23)cc1 [Example 20] for MMP-1 (Homo sapiens).
## Output 344

## Input Identify the measured IC50 of COc1ccc(S(=O)(=O)N(Cc2ccccc2)c2c(C(=O)NO)cnc3c(C(F)(F)F)cccc23)cc1 [Example 12] for MMP-1 (Homo sapiens).
## Output 933

## Input Identify the measured IC50 of COc1ccc(S(=O)(=O)N(Cc2ccccc2)c2c(C(=O)NO)cnc3ccc([N+](=O)[O-])cc23)cc1 [Example 30] for MMP-1 (Homo sapiens).
## Output 22

## Input Identify the measured IC50 of CCN(c1c(C(=O)NO)cnc2ccc(C#Cc3ccccc3)cc12)S(=O)(=O)c1ccc(OC)cc1 [Example 34] for MMP-1 (Homo sapiens).
## Output 301

## Input Identify the measured IC50 of COc1ccc(S(=O)(=O)N(Cc2cccnc2)c2c(C(=O)NO)cnc3c(-c4ccccc4)cccc23)cc1 [Example 40] for MMP-1 (Homo sapiens).
## Output 151

## Input Identify the measured IC50 of C=Cc1cccc2c(N(CC)S(=O)(=O)c3ccc(OC)cc3)c(C(=O)NO)cnc12 [Example 29] for MMP-1 (Homo sapiens).
## Output 200

## Input Identify the measured IC50 of COc1ccc(S(=O)(=O)N(Cc2ccccc2)c2c(C(=O)NO)cnc3ccc(Br)cc23)cc1 [Example 13] for MMP-1 (Homo sapiens).
## Output 82

## Input Identify the measured IC50 of COc1ccc(S(=O)(=O)N(Cc2cccnc2)c2c(C(=O)NO)cnc3snc(C)c23)cc1 [Example 86] for MMP-1 (Homo sapiens).
## Output 131

## Input Identify the measured IC50 of COc1ccc(S(=O)(=O)N(Cc2cccnc2)c2c(C(=O)NO)cnc3onc(C)c23)cc1 [Example 87] for MMP-1 (Homo sapiens).
## Output 111

## Input Identify the measured IC50 of COc1ccc(S(=O)(=O)N(Cc2cccnc2)c2c(C(=O)NO)cnc3c2cnn3-c2ccccc2)cc1 [Example 63] for MMP-1 (Homo sapiens).
## Output 721

## Input Identify the measured IC50 of COc1ccc(S(=O)(=O)N(Cc2ccccc2)c2c(C(=O)NO)cnc3c2cnn3-c2ccccc2)cc1 [Example 62] for MMP-1 (Homo sapiens).
## Output 1240

## Input Identify the measured IC50 of COc1ccc(S(=O)(=O)N(Cc2ccccc2)c2c(C(=O)NO)cnc3c2c(C)nn3-c2ccccc2)cc1 [Example 66] for MMP-1 (Homo sapiens).
## Output 512

## Input Identify the measured IC50 of COc1ccc(S(=O)(=O)N(Cc2cccnc2)c2c(C(=O)NO)cnc3c2c(C)nn3-c2ccccc2)cc1 [Example 67] for MMP-1 (Homo sapiens).
## Output 96

###

- System Under Test: TACE (Homo sapiens, UniProt P78536)
- Sequence (P78536 215-824): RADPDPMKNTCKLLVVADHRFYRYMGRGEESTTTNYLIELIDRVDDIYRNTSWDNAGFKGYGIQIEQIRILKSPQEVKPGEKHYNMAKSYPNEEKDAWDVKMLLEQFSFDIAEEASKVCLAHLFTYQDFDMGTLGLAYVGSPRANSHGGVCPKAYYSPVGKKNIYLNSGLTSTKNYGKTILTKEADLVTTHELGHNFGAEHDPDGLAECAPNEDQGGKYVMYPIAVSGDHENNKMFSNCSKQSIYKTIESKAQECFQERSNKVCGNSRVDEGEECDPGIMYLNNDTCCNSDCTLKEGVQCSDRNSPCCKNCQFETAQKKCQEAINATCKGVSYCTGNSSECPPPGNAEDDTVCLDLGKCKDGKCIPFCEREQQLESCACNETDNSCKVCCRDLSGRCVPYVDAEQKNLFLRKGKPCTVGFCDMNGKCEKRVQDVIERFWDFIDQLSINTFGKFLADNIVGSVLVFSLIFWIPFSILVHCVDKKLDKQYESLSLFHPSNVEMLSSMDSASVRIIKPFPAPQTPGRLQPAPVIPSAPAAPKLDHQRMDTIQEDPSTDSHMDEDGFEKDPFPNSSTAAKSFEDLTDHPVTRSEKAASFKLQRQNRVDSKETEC
pIC50: −log10 of the molar value.
Entry flag: YES if pIC50 reaches 7; NO if it does not.

## Input // inclusive: pIC50 at least 7? input: COc1ccc(S(=O)(=O)N(Cc2cccnc2)c2c(C(=O)NO)cnc3c(Cc4ccccc4)cccc23)cc1
## Output NO

## Input // inclusive: pIC50 at least 7? input: CN(c1c(C(=O)NO)cnc2ccc(I)cc12)S(=O)(=O)c1ccc(Oc2ccncc2)cc1
## Output YES

## Input // inclusive: pIC50 at least 7? input: COc1ccc(S(=O)(=O)N(Cc2ccccc2)c2c(C(=O)NO)cnc3c(C)cccc23)cc1
## Output NO

## Input // inclusive: pIC50 at least 7? input: COc1ccc(S(=O)(=O)N(Cc2ccccc2)c2c(C(=O)NO)cnc3c(C(F)(F)F)cccc23)cc1
## Output NO

## Input // inclusive: pIC50 at least 7? input: CCN(c1c(C(=O)NO)cnc2ccc(C#Cc3ccccc3)cc12)S(=O)(=O)c1ccc(OC)cc1
## Output YES

###

- System Under Test: TACE (Homo sapiens, UniProt P78536)
- Assay Comment: TACE inhibition (fluorescent peptidyl substrate)
- Format: biochemical
- Protocol Conditions: at 1 μM concentration; read-out: TACE % inhibition
Entry flag: true if inhibition at 1 µM reaches 7%; false if it does not.

## Input // inclusive: inhibition at 1 µM at least 7%? input: CCCCCCCCS(=O)(=O)N(Cc1cccnc1)c1c(C(=O)NO)cnc2cc(C(F)(F)F)ccc12 [Example 43]
## Output true

## Input // inclusive: inhibition at 1 µM at least 7%? input: COc1ccc(S(=O)(=O)N(Cc2cccnc2)c2c(C(=O)NO)cnc3cc(C)nn23)cc1 [Example 88]
## Output true

## Input // inclusive: inhibition at 1 µM at least 7%? input: COc1ccc(S(=O)(=O)N(Cc2ccccc2)c2c(C(=O)NO)cnc3ccc(Br)cc23)cc1 [Example 13]
## Output false

## Input // inclusive: inhibition at 1 µM at least 7%? input: Cc1ccc(S(=O)(=O)N(Cc2cccnc2)c2c(C(=O)NO)cnc3cc(C(F)(F)F)ccc23)cc1 [Example 44]
## Output false

## Input // inclusive: inhibition at 1 µM at least 7%? input: COc1ccc(S(=O)(=O)N(Cc2ccccc2)c2c(C(=O)NO)cnc3c2cnn3-c2ccccc2)cc1 [Example 62]
## Output true

###

- System Under Test: TACE (Homo sapiens)
Readout Name: pIC50
Friendly reminder that pIC50 comes from taking -log10 of the concentration in mol/L.

## Input // lookup pIC50 for COc1ccc(S(=O)(=O)N(Cc2ccccc2)c2c(C(=O)NO)cnc3ccc([N+](=O)[O-])cc23)cc1
## Output 7.33

## Input // lookup pIC50 for COc1ccc(S(=O)(=O)N(Cc2cccnc2)c2c(C(=O)NO)cnc3c(OC)cccc23)cc1
## Output 6.65

###

Please respond with reported IC50 for every item in the list.
# value in µM; strip the unit string

## Input Identify the measured IC50 of COc1ccc(S(=O)(=O)N(Cc2ccccc2)c2c(C(=O)NO)cnc3c2c(C)nn3-c2ccccc2)cc1 for MMP-13 (Homo sapiens, UniProt P45452).
## Output 0.00027

## Input Identify the measured IC50 of COc1ccc(S(=O)(=O)N(Cc2cccnc2)c2c(C(=O)NO)cnc3c2cnn3-c2ccccc2)cc1 [Example 63] for MMP-13 (Homo sapiens, UniProt P45452).
## Output 0.023

## Input Identify the measured IC50 of COc1ccc(S(=O)(=O)N(Cc2ccccc2)c2c(C(=O)NO)cnc3c2cnn3-c2ccccc2)cc1 for MMP-13 (Homo sapiens, UniProt P45452).
## Output 0.023

## Input Identify the measured IC50 of Cc1nsc2ncc(C(=O)NO)c(N(C)S(=O)(=O)c3ccc(Oc4ccncc4)cc3)c12 for MMP-13 (Homo sapiens, UniProt P45452).
## Output 0.0061

###

// MMP-13 (Homo sapiens, UniProt P45452) IC50 records
# value in nM; strip the unit string

## Input // lookup IC50 for COc1ccc(S(=O)(=O)N(Cc2cccnc2)c2c(C(=O)NO)cnc3c(OC)cccc23)cc1
## Output 1

## Input // lookup IC50 for CCc1cccc2c(N(Cc3ccccc3)S(=O)(=O)c3ccc(OC)cc3)c(C(=O)NO)cnc12
## Output 4

## Input // lookup IC50 for COc1ccc(S(=O)(=O)N(Cc2ccccc2)c2c(C(=O)NO)cnc3ccc(C(F)(F)F)cc23)cc1
## Output 12

## Input // lookup IC50 for CN(c1c(C(=O)NO)cnc2ccc(I)cc12)S(=O)(=O)c1ccc(Oc2ccncc2)cc1
## Output 1

## Input // lookup IC50 for COc1ccc(S(=O)(=O)N(Cc2cccnc2)c2c(C(=O)NO)cnc3c(I)cccc23)cc1
## Output 2

## Input // lookup IC50 for COc1ccc(S(=O)(=O)N(Cc2cccnc2)c2c(C(=O)NO)cnc3cc(C(F)(F)F)ccc23)cc1
## Output 3

## Input // lookup IC50 for COc1ccc(S(=O)(=O)N(Cc2ccccc2)c2c(C(=O)NO)cnc3c2c(C)nn3C)cc1
## Output 1.4

## Input // lookup IC50 for Cc1noc2ncc(C(=O)NO)c(N(C)S(=O)(=O)c3ccc(Oc4ccncc4)cc3)c12
## Output 3.2

## Input // lookup IC50 for COc1ccc(S(=O)(=O)N(Cc2cccnc2)c2c(C(=O)NO)cnc3onc(C)c23)cc1
## Output 10

## Input // lookup IC50 for COc1ccc(S(=O)(=O)N(Cc2ccccc2)c2c(C(=O)NO)cnc3c(C(C)C)cccc23)cc1
## Output 9
